// 3' UTR reporter interaction score lookup, one value per entry
Tested on: NOTCH1
PROTOCOL_DETAILS: 3' UTR reporter interaction score (median-centred robust z-score of log2 firefly/Renilla activity); higher = less repression of the 3' UTR reporter
EXPERIMENTAL_CONTEXT: HEK293T; 48 h
METRIC_NAME: 3' UTR reporter interaction score

>>> print(df.to_string())
                     residues  reported
 0    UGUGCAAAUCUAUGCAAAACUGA    -0.179
 1      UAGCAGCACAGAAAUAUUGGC    -0.212
 2    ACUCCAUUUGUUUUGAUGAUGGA    -0.518
 3     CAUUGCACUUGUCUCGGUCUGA    -0.145
 4      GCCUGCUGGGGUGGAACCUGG   -0.0223
 5    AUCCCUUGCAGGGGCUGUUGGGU     0.359
 6      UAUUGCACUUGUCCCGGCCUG    -0.177
 7        UGAGCUGCUGUACCAAAAU     0.526
 8     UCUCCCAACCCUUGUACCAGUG    -0.369
 9    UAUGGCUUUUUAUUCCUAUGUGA    -0.625
10     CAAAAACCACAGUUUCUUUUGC    -0.821
11     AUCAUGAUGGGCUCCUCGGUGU     -2.44
12       ACUGCAGUGAAGGCACUUGU      0.45
13     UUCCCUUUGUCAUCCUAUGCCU    -0.728
14      AGACCCUGGUCUGCACUCUAU     -0.49
15     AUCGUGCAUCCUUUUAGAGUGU    -0.741
16    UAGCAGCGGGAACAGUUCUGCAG  9.71e-17
17    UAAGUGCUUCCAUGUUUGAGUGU     0.935
18     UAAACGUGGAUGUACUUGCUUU     0.553
19     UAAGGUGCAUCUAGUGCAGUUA     0.564
20  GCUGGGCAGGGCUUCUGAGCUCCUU    -0.244
21        UGGGCGUAUCUGUAUGCUA     -2.02
22     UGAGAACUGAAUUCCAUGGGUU    -0.245

* * *

Test system: TP53
PROTOCOL_DETAILS: 3' UTR reporter interaction score (median-centred robust z-score of log2 firefly/Renilla activity); higher = less repression of the 3' UTR reporter
EXPERIMENTAL_CONTEXT: HEK293T; 48 h
// 3' UTR reporter interaction score lookup, one value per entry
METRIC_NAME: 3' UTR reporter interaction score

>>> df
                   residues  reported
 0   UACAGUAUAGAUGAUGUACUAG     0.564
 1  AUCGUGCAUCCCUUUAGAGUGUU    -0.928
 2  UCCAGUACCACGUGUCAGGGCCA    -0.171
 3  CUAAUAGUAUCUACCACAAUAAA    -0.375
 4  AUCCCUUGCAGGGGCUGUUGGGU    -0.855
 5    GGCAAGAUGCUGGCAUAGCUG     -0.71
 6   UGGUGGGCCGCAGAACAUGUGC     0.539
 7  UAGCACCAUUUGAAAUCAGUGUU    -0.394
 8    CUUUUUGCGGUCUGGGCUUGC   -0.0822
 9   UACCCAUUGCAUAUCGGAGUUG     0.729
10   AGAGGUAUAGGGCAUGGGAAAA    -0.403
11     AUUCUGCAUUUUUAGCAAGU     0.643
12    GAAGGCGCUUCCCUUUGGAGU    -0.237
13  CAAGUCACUAGUGGUUCCGUUUA    -0.393

* * *

Test system: MYB
PROTOCOL_DETAILS: 3' UTR reporter interaction score (median-centred robust z-score of log2 firefly/Renilla activity); higher = less repression of the 3' UTR reporter
EXPERIMENTAL_CONTEXT: HEK293T; 48 h
// 3' UTR reporter interaction score lookup, one value per entry
METRIC_NAME: 3' UTR reporter interaction score

In [3]: df
Out[3]:
                  residues                        metric_name  reported
0   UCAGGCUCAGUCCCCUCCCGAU  3' UTR reporter interaction score     -1.88
1   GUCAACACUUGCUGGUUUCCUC  3' UTR reporter interaction score    -0.366
2    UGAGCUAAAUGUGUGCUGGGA  3' UTR reporter interaction score     0.373
3   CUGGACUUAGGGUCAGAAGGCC  3' UTR reporter interaction score      1.31
4   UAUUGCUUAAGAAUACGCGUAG  3' UTR reporter interaction score    -0.789
5  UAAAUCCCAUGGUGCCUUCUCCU  3' UTR reporter interaction score    -0.131

* * *

Tested on: FBXW7
PROTOCOL_DETAILS: 3' UTR reporter interaction score (median-centred robust z-score of log2 firefly/Renilla activity); higher = less repression of the 3' UTR reporter
EXPERIMENTAL_CONTEXT: HEK293T; 48 h
METRIC_NAME: 3' UTR reporter interaction score

>>> df
                   residues  reported
 0  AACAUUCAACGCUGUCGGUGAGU    -0.842
 1    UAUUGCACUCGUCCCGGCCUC     -2.89
 2  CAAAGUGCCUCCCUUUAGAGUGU      0.81
 3    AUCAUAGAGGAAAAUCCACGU    0.0331
 4  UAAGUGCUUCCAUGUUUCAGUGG     0.421
 5   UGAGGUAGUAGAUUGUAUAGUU     0.329
 6   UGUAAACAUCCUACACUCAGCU     0.842
 7   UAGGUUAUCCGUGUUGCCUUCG    -0.104
 8   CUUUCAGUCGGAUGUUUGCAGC    -0.137
 9    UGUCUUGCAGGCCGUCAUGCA     0.883
10    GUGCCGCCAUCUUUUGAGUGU      -3.5
11  UAUGGCACUGGUAGAAUUCACUG     0.255
12  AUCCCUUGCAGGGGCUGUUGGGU      -1.6
13   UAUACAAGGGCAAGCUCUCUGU     0.144
14  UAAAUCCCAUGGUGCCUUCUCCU    -0.794
15  UCACUCCUCUCCUCCCGUCUUCU     -1.25

* * *

// 3' UTR reporter interaction score lookup, one value per entry
Tested on: HRAS
PROTOCOL_DETAILS: 3' UTR reporter interaction score (median-centred robust z-score of log2 firefly/Renilla activity); higher = less repression of the 3' UTR reporter
EXPERIMENTAL_CONTEXT: HEK293T; 48 h
METRIC_NAME: 3' UTR reporter interaction score

>>> df
                     residues  reported
 0   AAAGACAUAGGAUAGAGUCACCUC    -0.101
 1      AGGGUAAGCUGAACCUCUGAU     -0.74
 2      AGAGGUAGUAGGUUGCAUAGU         1
 3     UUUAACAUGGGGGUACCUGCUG     0.621
 4     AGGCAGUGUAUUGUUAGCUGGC     0.697
 5    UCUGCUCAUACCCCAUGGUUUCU    -0.642
 6      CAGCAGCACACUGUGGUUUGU     -1.05
 7     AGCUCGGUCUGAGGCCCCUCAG     0.284
 8    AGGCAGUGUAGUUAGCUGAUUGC       1.1
 9     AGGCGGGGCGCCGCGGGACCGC    -0.439
10     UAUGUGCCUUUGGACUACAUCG   -0.0556
11  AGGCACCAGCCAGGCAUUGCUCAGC    -0.411
12      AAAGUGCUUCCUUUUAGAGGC    -0.194
13     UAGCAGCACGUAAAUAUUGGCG   -0.0204
14   AACAUUCAUUGUUGUCGGUGGGUU    -0.818
15      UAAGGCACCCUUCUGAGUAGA     0.999
16     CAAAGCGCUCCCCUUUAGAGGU      1.33
17     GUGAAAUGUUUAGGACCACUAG    -0.276
18  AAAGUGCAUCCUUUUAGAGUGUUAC     0.648
19     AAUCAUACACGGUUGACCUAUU    -0.256
20    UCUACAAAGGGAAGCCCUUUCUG   -0.0822
21     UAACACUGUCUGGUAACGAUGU     0.337
22   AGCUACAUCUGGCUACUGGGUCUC       1.2
23     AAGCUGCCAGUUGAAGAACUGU     0.475
24    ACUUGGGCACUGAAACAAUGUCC  -0.00106

Reference source: the supplement of paper PMC5844555
